Test: physchem
Conditions: safflower oil, organic solvent or mixture, Solubility in Safflower Oil
Structures can show the parent of a compound that is named as a salt.
metric: solubility

{"columns": ["compound", "metric", "value"],
 "data": [
  ["CN[C@H]1CC[C@@H](c2ccc(Cl)c(Cl)c2)c2ccccc21 [Hydrochloride, sertraline hydrochloride]", "solubility", "< 9000 µg/mL"]
]}

---

Assay: physchem
Conditions: capmul-mcm, organic solvent or mixture, Solubility in Capmul-MCM
Counter-ions that a name gives are not always drawn.
metric: solubility

{"columns": ["molecule", "metric", "value"],
 "data": [
  ["CN[C@H]1CC[C@@H](c2ccc(Cl)c(Cl)c2)c2ccccc21 [Hydrochloride, sertraline hydrochloride]", "solubility", "~45 mg/mL"]
]}
